# target.under.test: SARS-CoV-2 Mpro (Severe acute respiratory syndrome coronavirus 2)
# test.protocol: biochemical
# condition.details: read-out: inhibition of SARS-CoV-2 Mpro enzyme activity (inhibition rate)
property.label: inhibition at 2 µM (%)
# number only, unit % dropped from output

Use the examples below as a reference point.
>  <molecule>
Oc1cccc(O)c1O

>  <property.label>
inhibition at 2 µM

>  <quantitative.result>
20

$$$$
>  <molecule>
O=c1oc2c(O)c(O)cc3c(=O)oc4c(O)c(O)cc1c4c23

>  <property.label>
inhibition at 2 µM

>  <quantitative.result>
3

$$$$

Challenge: Enter reported inhibition at 2 µM observed with SARS-CoV-2 Mpro (Severe acute respiratory syndrome coronavirus 2) for "O=C(OC[C@H]1O[C@@H](OC(=O)c2cc(O)c(O)c(O)c2)[C@H](OC(=O)c2cc(O)c(O)c(O)c2)[C@@H](OC(=O)c2cc(O)c(O)c(O)c2)[C@@H]1OC(=O)c1cc(O)c(O)c(O)c1)c1cc(O)c(O)c(O)c1"
Response given: 14

Challenge: Repeat with O=C1O[C@H]2[C@@H]3OC(=O)c4cc(O)c(O)c(O)c4-c4c(O)c(O)c5oc(=O)c6c(c(O)c(O)c7oc(=O)c4c5c76)-c4c(cc(O)c(O)c4O)C(=O)OC[C@H]3OC(O)[C@@H]2OC(=O)c2cc(O)c(O)c(O)c2-c2c1cc(O)c(O)c2O (mixture of isomers)
Response given: 2

* * *

# target.under.test: UniProt:P0DTD1
# Assay type: binding
# condition.details: highest response in SPR sensorgrams
property.label: SPR response units (RUs) in sensorgrams, up to

>  <entry.smiles>
O=c1oc2cc(O)ccc2c2ccccc12

>  <target.under.test>
UniProt:P0DTD1

>  <result>
< 10 RU

$$$$

Shifting focus to the compound that follows.
Challenge: Report SPR response units (RUs) in sensorgrams, up to for "O=C(OC[C@H]1O[C@@H](OC(=O)c2cc(O)c(O)c(O)c2)[C@H](OC(=O)c2cc(O)c(O)c(O)c2)[C@@H](OC(=O)c2cc(O)c(O)c(O)c2)[C@@H]1OC(=O)c1cc(O)c(O)c(O)c1)c1cc(O)c(O)c(O)c1" tested on UniProt:P0DTD1.
Response given: ≤ 1186 RU
